Data origin, for the record: patent US20100055192A1

Test: Particle size distribution by laser diffraction (Malvern apparatus)
Format: physicochemical
Details: volume diameter of 5% of the particles
Structures can show the parent of a compound that is named as a salt.
readout kind: Particle size d (v, 0.05) (μm)
Hi! Could you send only the number? It should be in μm, unit omitted.

stdin: May I ask what Particle size d (v, 0.05) has been recorded for COc1ccc(C[C@@H](C)NC[C@H](O)c2ccc(O)c3[nH]c(=O)ccc23)cc1 [carmoterol hydrochloride batch 3] ?
stdout: 0.58

stdin: # get_value(readout='Particle size d (v, 0.05)', item= COc1ccc(C[C@@H](C)NC[C@H](O)c2ccc(O)c3[nH]c(=O)ccc23)cc1 [carmoterol hydrochloride batch 6] )
stdout: 0.59

stdin: Any idea what its Particle size d (v, 0.05) is? The compound is COc1ccc(C[C@@H](C)NC[C@H](O)c2ccc(O)c3[nH]c(=O)ccc23)cc1 [carmoterol hydrochloride batch 2]
stdout: 0.67

stdin: GET /values?readout=Particle size d (v, 0.05)&item= COc1ccc(C[C@@H](C)NC[C@H](O)c2ccc(O)c3[nH]c(=O)ccc23)cc1 [carmoterol hydrochloride batch 5]
stdout: 0.48

stdin: Give the measured Particle size d (v, 0.05) of COc1ccc(C[C@@H](C)NC[C@H](O)c2ccc(O)c3[nH]c(=O)ccc23)cc1 [carmoterol hydrochloride batch 4] .
stdout: 0.55

stdin: Entry under review: COc1ccc(C[C@@H](C)NC[C@H](O)c2ccc(O)c3[nH]c(=O)ccc23)cc1 [carmoterol hydrochloride batch 1] . Reported Particle size d (v, 0.05)?
stdout: 0.70
